- test description: Encapsulation ratio of agents in PLGA microparticles (HPLC of supernatant and deposit)
- Type: physicochemical
- conditions: FIG. 1; microparticles of Example 1
readout type: encapsulation ratio in PLGA microparticle

CCCC(=O)O[C@]1(C(=O)COC(=O)CC)CC[C@H]2[C@@H]3CCC4=CC(=O)CC[C@]4(C)[C@H]3[C@@H](O)C[C@@]21C [HBP, hydrocortisone butyrate propionate] : significantly increased
CCC(=O)OCC(=O)[C@@]1(OC(=O)CC)[C@@H](C)C[C@H]2[C@@H]3CCC4=CC(=O)C=C[C@]4(C)[C@@]3(F)[C@@H](O)C[C@@]21C [BDP, betamethazone dipropionate] : significantly increased
